So I've got a bunch of compounds here, and I need their Activity values.
# Tested on: HEK293
# Test details: Cytotoxicity against HEK293 cells assessed as cell viability at 10 uM incubated for 4 hrs by MTT assay relative to control
# Assay type: toxicity, cell-based
# Condition details: human, hek293, 4 h, 10 µM
# unit: % | format: bare number

For record CCCOc1ccc(Cl)cc1CN(CCc1ccc(S(=O)(=O)N2CCC2)cc1)C(=O)Cc1ccc(F)cc1 the listed Activity is 103.6

Memo: C#CCS(=O)(=O)c1ccc(CCN(Cc2cc(Cl)ccc2OCCC)C(=O)c2csc3ccccc23)cc1 , reported Activity: 95.6

Value of Activity reported for the compound C#CCNS(=O)(=O)c1ccc(CCN(Cc2cc(Cl)ccc2C(F)(F)F)C(=O)Cc2ccsc2)cc1 is 92.1

Sure, the documented Activity for C#CCNS(=O)(=O)c1ccc(CCN(Cc2cc(Cl)ccc2N)C(=O)Cc2ccsc2)cc1 is 92.9

For reference, reported Activity for C#CCNS(=O)(=O)c1ccc(CCN(Cc2cccc3c2OCO3)C(=O)Cc2ccc(F)cc2)cc1 stands at 96.2

* * *

# Test system: HEK293
# Test details: Cytotoxicity against HEK293 cells assessed as cell viability at 10 uM incubated for 4 hrs by MTT assay relative to control
# Assay type: toxicity, cell-based
# Condition details: human, hek293, 4 h, 10 µM
Measure name: Activity (%)
# number only, unit % dropped from output

Short answer for C#CCNS(=O)(=O)c1ccc(CCN(Cc2cc(Cl)ccc2OCCC)C(=O)CCCc2ccsc2)cc1 : Activity was 89.1

For reference, reported Activity for C#CCNS(=O)(=O)c1ccc(CCN(Cc2ccccc2OCCC)C(=O)Cc2ccsc2)cc1 stands at 98.9

For record C#CCNS(=O)(=O)c1ccc(CCN(Cc2cc(Cl)ccc2OCCC)C(=O)c2csc3c2CCCC3)cc1 the listed Activity is 95.9

Activity recorded for this molecule, C#CCNS(=O)(=O)c1ccc(CCN(Cc2cc(Cl)ccc2OCCC)C(=O)c2csc3ccccc23)cc1 , is 92.6

The molecule listed as C#CCNS(=O)(=O)c1ccc(CCN(Cc2cccc3c2OCO3)C(=O)Cc2ccsc2)cc1 shows Activity equal to 100.7

According to the records, this molecule C#CCNS(=O)(=O)c1ccc(CCN(Cc2ccsc2)Cc2cc(Cl)ccc2OCCC)cc1 displays Activity of 82

Form: molecule = CCCOc1ccc(Cl)cc1CN(CCc1ccc(S(=O)(=O)N2CCOCC2)cc1)C(=O)Cc1ccsc1 ; Activity = 88.3

Summary for this molecule, C#CCNS(=O)(=O)c1ccc(CCN(Cc2cc(Cl)ccc2OCCC)C(=O)Cc2ccsc2)cc1 : Activity is 99

So for C#CCNS(=O)(=O)c1ccc(CCN(Cc2cc(Cl)ccc2OCCC)C(=O)Cc2ccc(F)cc2)cc1 , the logged Activity turned out to be 90.6

* * *

# Tgt: NACHT, LRR and PYD domains-containing protein 3 (Homo sapiens)
# Sequence (Q96P20 whole entry, the tested form may be a part): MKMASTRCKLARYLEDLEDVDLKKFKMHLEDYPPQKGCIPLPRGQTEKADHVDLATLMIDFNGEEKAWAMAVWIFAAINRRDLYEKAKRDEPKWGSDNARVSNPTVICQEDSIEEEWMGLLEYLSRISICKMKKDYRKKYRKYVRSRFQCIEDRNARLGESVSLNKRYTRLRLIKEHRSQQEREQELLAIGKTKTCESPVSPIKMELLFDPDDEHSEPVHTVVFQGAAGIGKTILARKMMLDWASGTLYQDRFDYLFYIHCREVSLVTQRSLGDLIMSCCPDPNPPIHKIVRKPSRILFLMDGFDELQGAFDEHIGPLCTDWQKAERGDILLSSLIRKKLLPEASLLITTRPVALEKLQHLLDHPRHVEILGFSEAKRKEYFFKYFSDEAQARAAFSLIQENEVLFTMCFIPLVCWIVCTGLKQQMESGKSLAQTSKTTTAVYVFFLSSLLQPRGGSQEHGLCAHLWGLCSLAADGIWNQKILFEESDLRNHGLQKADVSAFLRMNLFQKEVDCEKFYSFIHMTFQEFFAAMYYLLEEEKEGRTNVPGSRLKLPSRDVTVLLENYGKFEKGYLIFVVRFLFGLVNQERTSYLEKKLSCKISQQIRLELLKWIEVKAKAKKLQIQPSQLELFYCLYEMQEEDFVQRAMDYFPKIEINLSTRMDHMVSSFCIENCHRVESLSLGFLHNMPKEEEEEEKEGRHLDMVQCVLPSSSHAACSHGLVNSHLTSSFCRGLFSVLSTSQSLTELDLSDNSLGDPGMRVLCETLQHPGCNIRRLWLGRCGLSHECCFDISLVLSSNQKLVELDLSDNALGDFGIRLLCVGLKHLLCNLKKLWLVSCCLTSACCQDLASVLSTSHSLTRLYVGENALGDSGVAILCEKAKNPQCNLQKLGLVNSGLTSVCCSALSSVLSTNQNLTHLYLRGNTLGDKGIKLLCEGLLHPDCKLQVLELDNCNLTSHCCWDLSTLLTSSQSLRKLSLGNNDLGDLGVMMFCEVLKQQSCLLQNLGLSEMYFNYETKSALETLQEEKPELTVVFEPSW
# Test details: Binding affinity to human recombinant full length NLRP3 transfected in HEK293F cells assessed as dissociation constant incubated for 40 mins by microscale thermophoresis analysis
Measure name: pKd
API: returns pKd as number; meaning -log10 of concentration in mol/L.

In plain terms, C#CCNS(=O)(=O)c1ccc(CCN(Cc2cc(Cl)ccc2OCCC)C(=O)c2ccc(F)cc2)cc1 has a documented pKd of 7.08

* * *

# Tgt: NLR family CARD domain-containing protein 4 (Mus musculus, UniProt Q3UP24)
# Sequence (Q3UP24 whole entry, the tested form may be a part): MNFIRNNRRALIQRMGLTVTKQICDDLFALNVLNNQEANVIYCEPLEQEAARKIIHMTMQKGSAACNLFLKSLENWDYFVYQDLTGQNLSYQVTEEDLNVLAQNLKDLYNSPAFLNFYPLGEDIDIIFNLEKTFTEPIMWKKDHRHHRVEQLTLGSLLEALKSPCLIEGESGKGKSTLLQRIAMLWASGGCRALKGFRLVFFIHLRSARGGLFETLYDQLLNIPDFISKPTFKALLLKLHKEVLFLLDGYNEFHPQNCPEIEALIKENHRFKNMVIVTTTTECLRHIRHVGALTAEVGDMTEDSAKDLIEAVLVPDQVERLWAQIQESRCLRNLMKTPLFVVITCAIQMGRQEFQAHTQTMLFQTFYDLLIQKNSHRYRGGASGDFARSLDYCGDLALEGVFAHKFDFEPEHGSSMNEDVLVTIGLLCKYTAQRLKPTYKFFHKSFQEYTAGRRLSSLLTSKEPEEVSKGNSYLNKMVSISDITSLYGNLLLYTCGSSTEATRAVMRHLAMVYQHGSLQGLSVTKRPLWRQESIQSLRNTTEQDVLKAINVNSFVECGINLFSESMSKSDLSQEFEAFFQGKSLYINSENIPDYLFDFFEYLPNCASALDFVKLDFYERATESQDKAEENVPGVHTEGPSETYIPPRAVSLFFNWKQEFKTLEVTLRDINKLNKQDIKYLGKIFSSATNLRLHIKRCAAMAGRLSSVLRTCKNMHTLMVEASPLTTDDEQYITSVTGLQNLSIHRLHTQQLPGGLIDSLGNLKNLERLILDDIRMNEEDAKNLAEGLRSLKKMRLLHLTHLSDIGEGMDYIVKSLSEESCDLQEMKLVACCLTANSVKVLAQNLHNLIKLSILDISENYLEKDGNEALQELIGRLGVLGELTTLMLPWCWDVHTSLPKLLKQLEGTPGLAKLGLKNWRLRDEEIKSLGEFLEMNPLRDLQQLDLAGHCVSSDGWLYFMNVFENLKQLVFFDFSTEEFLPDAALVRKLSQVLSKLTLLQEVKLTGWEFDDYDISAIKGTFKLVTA
# Test details: Inhibition of NLRC4 inflammasome in LPS-primed mouse J774.A1 cells assessed as reduction in IL-1beta secretion preincubated for 1 hr followed by flagellin addition and measured after 6 hrs by ELISA
pIC50: −log10 of the molar value.
Exercise: state measured pIC50 for each of the molecules provided.

Measured pIC50, C#CCNS(=O)(=O)c1ccc(CCN(Cc2cc(Cl)ccc2OCCC)C(=O)Cc2csc3ccccc23)cc1 : < 5.00

The molecule C#CCN(C)S(=O)(=O)c1ccc(CCN(Cc2cc(Cl)ccc2OCCC)C(=O)Cc2ccsc2)cc1 showed pIC50 equal to < 5.00

Item: C#CCNS(=O)(=O)c1ccc(CCN(Cc2cc(Cl)ccc2OCCC)C(=O)c2ccc(F)cc2)cc1 | pIC50: < 5.00
